The reported numbers originate from PubChem BioAssay AID1159580.

Assay: chemical genetic growth profiling, strain panel (AID 1159580);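 also: tested at 20 µM; growth read once vehicle control cultures reached saturation at 30 °C; 1 = growth at the plate median or of vehicle wells; lower values mean less growth of the strain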
Conditions: S. cerevisiae deletion strains, growth OD, locus YNL071W, strain lat1, stronger effect = lower value
In all, about 5,500 compounds went through this assay and about 2,000 (36%) were called active. Another 18% or so got no clear call; they are omitted. The list shows a part of the results.
I'd be grateful if you could share measured normalized growth for these entries.
Give bare numbers.

Known normalized growth results, listed for orientation:
[
  {
    "compound": "COCCc1ccc(OCC(O)CNC(C)C)cc1 (stereo unspecified)",
    "normalized growth": 0.989
  },
  {
    "compound": "COc1cc2c(cc1OC)C(=O)OC2",
    "normalized growth": 0.995
  },
  {
    "compound": "COc1ccc2c(c1)O[C@@H]1COc3cc(OC)c(OC)cc3[C@@H]1C2=O",
    "normalized growth": 0.246
  },
  {
    "compound": "COC1=CC(=O)C[C@@H](C)[C@]12Oc1c(Cl)c(OC)cc(OC)c1C2=O",
    "normalized growth": 0.992
  },
  {
    "compound": "COc1cc2c(cc1OC)[C@@H]1C(=O)c3ccc(O)c(CC=C(C)C)c3O[C@@H]1CO2",
    "normalized growth": 1.02
  }
]

Items follow; give normalized growth for each.
1. CC1=C(/C=C/C(C)=C/C=C/C(C)=C/C=C/C=C(C)/C=C/C=C(C)/C=C/C(=O)[C@]2(C)C[C@@H](O)CC2(C)C)C(C)(C)C[C@H](O)C1
2. CCCCNc1cc(C(=O)O)cc(S(N)(=O)=O)c1Oc1ccccc1

(A)
1.03
1.02

Items follow; give normalized growth for each.
1. COc1cc(NS(=O)(=O)c2ccc(N)cc2)nc(OC)n1
2. O=C(O)c1cc2ccccc2[nH]1
3. COc1cc(NC(C)CCCN)c2ncccc2c1 (stereo unspecified)
4. CC1CC2C3CCC4=CC(=O)C=C[C@]4(C)[C@@]3(F)[C@@H](O)C[C@]2(C)[C@@]1(O)C(=O)CO (stereo partly specified)

(A)
[0.975, 0.986, 1.01, 0.993]

====

I'd be grateful if you could share measured normalized growth for these entries.
Experiment: chemical genetic growth profiling, strain panel (AID 1159580);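 also: tested at 20 µM; growth read once vehicle control cultures reached saturation at 30 °C; 1 = growth at the plate median or of vehicle wells; lower values mean less growth of the strain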
Settings: S. cerevisiae deletion strains, growth OD, locus YJR066W, strain TOR1, stronger effect = lower value
In all, about 5,500 compounds went through this assay and about 2,000 (36%) were called active. Roughly 18% stayed inconclusive and do not appear here. Some of the results follow.

[
  {
    "compound": "CSC1=NNC(c2nn(C)cc2Cl)S1 (stereo not drawn)",
    "property measured": "normalized growth",
    "val": "0.17 (active)"
  },
  {
    "compound": "C[C@H]1CC2C([C@@H](O)C[C@@]3(C)C2CC[C@]3(O)C(=O)CO)[C@@]2(C)C=CC(=O)C=C12 (stereo partly drawn)",
    "property measured": "normalized growth",
    "val": "1.02 (inactive)"
  },
  {
    "compound": "COc1ccc(OC)c(C(O)C(C)N)c1 (stereo not drawn)",
    "property measured": "normalized growth",
    "val": "0.991 (inactive)"
  },
  {
    "compound": "COc1ccc2c(C)cc(=O)oc2c1",
    "property measured": "normalized growth",
    "val": "0.933 (inactive)"
  },
  {
    "compound": "Cc1nn(Cc2cccc(C(=O)Nc3ccc(Cl)cc3)c2)c(C)c1Br",
    "property measured": "normalized growth",
    "val": "1.06 (inactive)"
  }
]

Items follow; give normalized growth for each.
1. Cc1c(Cc2ccc(F)cc2)c(=O)oc2cc(O)ccc12
2. COc1ccc(CN2CSC(=S)N(Cc3ccc(OC)cc3)C2)cc1
3. CC(C(=O)O)c1cccc(Oc2ccccc2)c1 (stereo not drawn)
4. Cc1ccc(-c2csc(-c3cccnc3)n2)c(C)c1
5. CC(C(=O)O)c1ccc(-c2ccccc2)c(F)c1 (stereo not drawn)
6. c1cncc(C2CCCCN2)c1 (stereo not drawn)
7. COc1cc(O)c(C(=O)/C=C/c2ccc(O)c(OC)c2)c(OC)c1

(A)
0.957 (inactive)
0.998 (inactive)
0.856 (inactive)
0.833 (inactive)
0.762 (active)
0.974 (inactive)
0.926 (inactive)
